The reported numbers originate from patent US12319655B2.

# Lookup of reported IC50 keyed by entry
target: B-Raf kinase (SEQ. ID NO: 2) (Homo sapiens (Human)); test: Biochemical Assay for B-Raf (1); settings: Table J, assay version (1); read-out: BRAF (1) IC50

Some entries whose results are on file:
Cc1ccc(NC(=O)c2ccnc(C(C)(C)C#N)c2)cc1-c1cccc(-c2cc(NC(=O)C3CC3)ncn2)c1 [Example 77]: ≤ 100 nM
Cc1ncc(NC(=O)C23CCC(C#N)(CC2)CC3)cc1-c1cccc(-c2ccnc(NC(=O)C3CC3)c2)n1 [Example 342]: 1000 to 10000 nM
Cc1ccc(NC(=O)c2ccnc(C(C)(C)C#N)c2)cc1-c1cncc(-c2ccnc3c2CC(=O)N3)n1 [Example 43]: ≤ 100 nM
CNC(=O)c1cc(-c2cnnc(-c3cc(NC(=O)c4ccnc(C(C)(C)F)c4)cnc3C)c2)ccn1 [Example 309]: 1000 to 10000 nM

Q. Need IC50, item Cc1ccc(NC(=O)c2cc(CN(C)C)cc(C(F)(F)F)c2)cc1-c1cccc(-c2cc(NC(=O)C3CC3)ncn2)c1 [Example 202]
A. ≤ 100 nM

Q. Need IC50, item COCC(=O)Nc1cc(-c2cccc(-c3cc(NC(=O)c4ccnc(C(F)(F)F)c4)ccc3C)c2)ccn1 [Example 57]
A. ≤ 100 nM

Q. Need IC50, item Cc1ncc(NC(=O)c2cnnc(C3CC3)c2)cc1-c1nccc(-c2ccnc(NC(=O)C3CC3)c2)n1 [Example 294]
A. ≤ 100 nM

Q. Need IC50, item CNC(=O)c1cc(-c2cnnc(-c3cc(NC(=O)c4ccnc(C(F)F)c4)ccc3C)c2)ccn1 [Example 327]
A. 100 to 500 nM

Q. Need IC50, item COC(=O)Nc1cc(-c2nccc(-c3cc(NC(=O)c4ccnc(C(C)(C)F)c4)c(F)cc3C)n2)ccn1 [Example 304]
A. ≤ 100 nM

Q. Need IC50, item CNC(=O)c1cc(-c2cnnc(-c3cc(NC(=O)CCC(C)(C)C#N)cnc3C)c2)ccn1 [Example 333]
A. 1000 to 10000 nM

Q. Need IC50, item CNC(=O)c1cc(-c2cc(-c3cc(NC(=O)c4cnnc(C5CC5)c4)ccc3C)ccn2)ccn1 [Example 215]
A. ≤ 100 nM

Q. Need IC50, item Cc1ncc(NC(=O)c2ccnc(C(F)(F)F)c2)cc1-c1cccc(-c2ccnc(NC(=O)CN(C)C)c2)c1 [Example 95]
A. ≤ 100 nM

Q. Need IC50, item CC(=O)Nc1cc(-c2cncc(-c3cc(NC(=O)c4ccc(Cl)c(C(F)(F)F)c4)ccc3C)n2)ccn1 [Example 121]
A. ≤ 100 nM

Q. Need IC50, item Cc1ncc(NC(=O)CC2CC(F)(F)C2)cc1-c1nccc(-c2ccnc(NC(=O)C3CC3)c2)n1 [Example 354]
A. 500 to 1000 nM

Q. Need IC50, item Cc1ncc(NC(=O)c2ccnc(C(C)(C)C#N)c2)cc1-c1cccc(-c2ccnc3c2CC(=O)N3)c1 [Example 105]
A. 100 to 500 nM

###

target: A-Raf kinase (SEQ. ID No: 1) (Homo sapiens (Human), UniProt P10398, Y301D/Y302D); assay: Biochemical Assay for A-Raf (1); conditions: Table J, assay version (1); read-out: ARAF (1) IC50
Sequence (P10398 other isoform, or with tags, fused parts or gaps Y301D (already in the parent)/Y302D (already in the parent)): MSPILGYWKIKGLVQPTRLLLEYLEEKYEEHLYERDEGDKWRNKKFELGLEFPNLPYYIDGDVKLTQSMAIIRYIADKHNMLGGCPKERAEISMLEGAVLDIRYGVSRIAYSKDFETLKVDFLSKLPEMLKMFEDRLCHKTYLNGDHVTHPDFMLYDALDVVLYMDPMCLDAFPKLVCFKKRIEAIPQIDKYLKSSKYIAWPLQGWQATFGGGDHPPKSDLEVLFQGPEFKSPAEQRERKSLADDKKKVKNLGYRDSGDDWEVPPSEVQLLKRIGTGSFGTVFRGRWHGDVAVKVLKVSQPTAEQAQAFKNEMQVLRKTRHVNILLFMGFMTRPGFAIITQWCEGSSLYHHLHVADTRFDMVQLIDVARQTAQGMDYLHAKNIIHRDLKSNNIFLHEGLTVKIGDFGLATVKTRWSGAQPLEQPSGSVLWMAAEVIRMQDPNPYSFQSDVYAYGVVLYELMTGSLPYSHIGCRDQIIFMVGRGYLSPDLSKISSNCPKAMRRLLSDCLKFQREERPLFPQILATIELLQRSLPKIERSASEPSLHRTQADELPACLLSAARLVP
pIC50: −log10 of the molar value.
METRIC: pIC50

Some entries whose results are on file:
COC(=O)Nc1cc(-c2cnnc(-c3cc(NC(=O)c4ccnc(C(C)(C)C#N)c4)cnc3C)c2)ccn1: 5.00 to 6.00
CC(=O)Nc1cc(-c2cncc(-c3cc(NC(=O)c4ccnc(C(C)(C)C#N)c4)ccc3C)n2)ccn1: 6.00 to 6.30
Cc1ccc(NC(=O)c2ccnc(C(C)(C)C#N)c2)cc1-c1cc(-c2ccnc(NC(=O)C3CC3)c2)cnn1: 6.00 to 6.30

Please look at the following molecule next.
Q. Need pIC50, item CNC(=O)c1cc(-c2cncc(-c3cc(NC(=O)c4ccnc(C(C)(C)C#N)c4)ccc3C)n2)ccn1
A. 5.00 to 6.00

###

target: B-Raf kinase (SEQ. ID NO: 2) (Homo sapiens (Human), UniProt P15056); test: Biochemical Assay for B-Raf (1); conditions: Table J, assay version (1); read-out: BRAF (1) IC50
Sequence (P15056 416-766): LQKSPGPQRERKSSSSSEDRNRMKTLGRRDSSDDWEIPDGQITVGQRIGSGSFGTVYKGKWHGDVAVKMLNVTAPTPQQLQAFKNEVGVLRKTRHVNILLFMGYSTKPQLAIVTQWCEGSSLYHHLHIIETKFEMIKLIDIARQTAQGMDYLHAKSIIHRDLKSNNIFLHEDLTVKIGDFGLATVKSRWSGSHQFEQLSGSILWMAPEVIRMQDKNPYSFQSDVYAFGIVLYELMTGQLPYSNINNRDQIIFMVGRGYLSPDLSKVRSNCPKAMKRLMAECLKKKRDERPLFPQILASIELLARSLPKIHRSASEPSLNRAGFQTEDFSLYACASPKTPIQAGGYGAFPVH
pIC50: −log10 of the molar value.
# Lookup of reported pIC50 keyed by entry

Some entries whose results are on file:
CNC(=O)c1cc(-c2cc(-c3cc(NC(=O)c4ccnc(C(C)(C)C#N)c4)ccc3F)ccn2)ccn1 [Example 205]: 6.30 to 7.00
Cc1ncc(NC(=O)c2ccnc(C(C)(C)C#N)c2)cc1-c1ccnc(-c2ccnc(NC(=O)C(C)(C)C)c2)c1 [Example 228]: 6.30 to 7.00
CNC(=O)c1cc(-c2cc(-c3cc(NC(=O)c4cccc(C(C)(C)C#N)c4)ccc3C)ccn2)ccn1 [Example 127]: ≥ 7.00

Please look at the following molecule next.
Q. Need pIC50, item Cc1ncc(NC(=O)c2cnnc(C3CC3)c2)cc1-c1ccnc(-c2ccnc(NC(=O)C3CC3)c2)c1 [Example 254]
A. ≥ 7.00

###

# Lookup of reported IC50 keyed by entry
tested on: H2405 cells; experiment: H2405 Cell Proliferation Assay (1); format: cell-based; conditions: Homo sapiens, NCI-H2405

Q. Need IC50, item CC(C)(C#N)c1cc(C(=O)Nc2ccc(C#N)c(-c3cccc(-c4cc(NC(=O)C5CC5)ncn4)c3)c2)ccn1
A. 100 to 500 nM

###

# Lookup of reported IC50 keyed by entry
target: C-Raf kinase (SEQ. ID NO: 3) (Homo sapiens (Human), UniProt P04049, Y340D/Y341D); test: Biochemical Assay for C-Raf (1); conditions: Table J, assay version (1); read-out: CRAF (1) IC50
Sequence (P04049 307-648 Y340D/Y341D): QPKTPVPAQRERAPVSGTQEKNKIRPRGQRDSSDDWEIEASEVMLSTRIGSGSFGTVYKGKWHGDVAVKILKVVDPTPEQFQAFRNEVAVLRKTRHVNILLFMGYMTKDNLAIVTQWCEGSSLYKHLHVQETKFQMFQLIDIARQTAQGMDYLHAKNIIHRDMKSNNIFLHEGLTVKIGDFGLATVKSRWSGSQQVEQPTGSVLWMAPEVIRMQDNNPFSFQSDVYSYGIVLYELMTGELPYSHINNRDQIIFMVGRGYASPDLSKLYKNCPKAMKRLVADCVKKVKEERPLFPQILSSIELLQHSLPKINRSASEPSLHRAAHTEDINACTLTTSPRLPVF

Some entries whose results are on file:
Cc1ncc(NC(=O)c2cn(C(C)C)nn2)cc1-c1nccc(-c2ccnc(NC(=O)C3CC3)c2)n1: ≤ 100 nM
Cc1ncc(NC(=O)c2ccnc(C(C)(C)C#N)c2)cc1-c1cccc(-c2cc(NC(=O)C(C)(C)C)ncn2)c1: 500 to 1000 nM
Cc1ncc(NC(=O)c2ccnc(C3CC3)c2)cc1-c1nccc(-c2ccnc(NC(=O)C3CC3)c2)n1: ≤ 100 nM

Please look at the following compound next.
Q. Need IC50, item Cc1ncc(NC(=O)c2ccnc(C(C)(C)C#N)c2)cc1-c1cccc(-c2ccnc3[nH]cnc23)c1
A. 100 to 500 nM

###

target: C-Raf kinase (SEQ. ID NO: 3) (Homo sapiens (Human), UniProt P04049, Y340D/Y341D); experiment: Biochemical Assay for C-Raf (1); settings: Table J, assay version (1); read-out: CRAF (1) IC50
pIC50: −log10 of the molar value.
METRIC: pIC50

Some entries whose results are on file:
CCOc1cc(-c2cc(NC(=O)c3ccnc(C(F)(F)F)c3)c(F)cc2C)cc(-c2ccnc(NC(C)=O)c2)n1: ≥ 7.00
CNC(=O)c1cc(-c2cc(-c3cc(NC(=O)c4ccnc(C(C)(C)F)c4)ccc3C)cnc2C)ccn1: 6.30 to 7.00
Cc1ncc(NC(=O)CC2COC2)cc1-c1cccc(-c2cc(NC(=O)C3CC3)ncn2)c1: 5.00 to 6.00
CC(=O)Nc1cc(-c2cncc(-c3cc(NC(=O)c4ccnc(C5(C#N)CC5)c4)ccc3C)n2)ccn1: ≥ 7.00
CNC(=O)c1cc(-c2nccc(-c3cc(NC(=O)c4ccnc(C(C)(C)C#N)c4)ccc3C)n2)ccn1: ≥ 7.00
Cc1ccc(NC(=O)c2ccnc(C(C)(C)C#N)c2)cc1-c1cccc(-c2ccnc(NC(=O)C3CC3)c2)c1: ≥ 7.00

Please look at the following compound next.
Q. Need pIC50, item CNC(=O)c1cc(-c2cncc(-c3cc(NC(=O)c4ccnc(C(C)(C)C#N)c4)c(F)cc3C)n2)ccn1
A. 6.30 to 7.00

###

# Lookup of reported IC50 keyed by entry
Molecular target: UniProtKB P15056
Test: Biochemical Assay for B-Raf (1)
Conditions: Table J, assay version (1); read-out: BRAF (1) IC50
Method: Biochemical Assay for B-Raf (1) Activity of B-Raf kinase (SEQ. ID NO: 2) was determined spectroscopically using a coupled pyruvate kinase/lactate dehydrogenase assay that continuously monitors the ATP hydrolysis-dependent oxidation of NADH (e.g., Schindler et al., Science, 2000, 289, 1938-1942). […] Inhibition of B-Raf was measured by adding serial diluted test compound (final assay concentration of 1% DMSO). […] The reaction rate was calculated using the 4 to 5 h time frame. […]

Q. Under UniProtKB P15056: IC50 value of CNC(=O)c1cc(-c2cc(-c3cc(NC(=O)c4ccnc(C(C)(C)C#N)c4)ccc3C)ccn2)ccn1 [Example 50] ?
A. ≤ 100 nM

Q. Under UniProtKB P15056: IC50 value of Cc1ccc(NC(=O)c2ccnc(C(C)(C)C#N)c2)cc1-c1cncc(-c2ccnc(N)c2)n1 [Example 141] ?
A. 100 to 500 nM

Q. Under UniProtKB P15056: IC50 value of Cc1ncc(NC(=O)c2ccnc(C(C)(C)C#N)c2)cc1-c1ccnc(-c2ccnc(NC(=O)C(C)(C)C#N)c2)c1 [Example 219] ?
A. 100 to 500 nM

Q. Under UniProtKB P15056: IC50 value of Cc1cc(F)c(NC(=O)c2cnnc(C3CC3)c2)cc1-c1nccc(-c2ccnc(NC(=O)C3CC3)c2)n1 [Example 252] ?
A. ≤ 100 nM

Q. Under UniProtKB P15056: IC50 value of CC(=O)Nc1cc(-c2nccc(-c3cc(NC(=O)c4ccnc(C(F)(F)F)c4)cnc3C)n2)ccn1 [Example 157] ?
A. ≤ 100 nM

Q. Under UniProtKB P15056: IC50 value of COC(=O)Nc1nccc(-c2cccc(-c3cc(NC(=O)c4ccnc(C(C)(C)C#N)c4)cnc3C)c2)n1 [Example 290] ?
A. 500 to 1000 nM

Q. Under UniProtKB P15056: IC50 value of Cc1ccc(NC(=O)c2ccnc(C(C)(C)C#N)c2)cc1-c1cccc(-c2ccnc3[nH]ccc23)c1 [Example 133] ?
A. 100 to 500 nM
